- protocol summary: Clearance in ICR (CD-1) mouse at 10 mg/kg, iv measured up to 1440 mins by LC-MS/MS analysis
- Assay type: ADME, organism-based
- measurement setup: in vivo
quantity measured: clearance (mL/min/kg)
Record the value in mL/min/kg, omitting the unit from your answer.

So what does the record say about clearance for COc1ccc2ncc(F)c(C[C@H](O)[C@H]3OC[C@H](NCc4cc5c(nn4)OCCS5)CO3)c2n1 ?
69

* * *

- protocol summary: Metabolic stability in human microsomes assessed as half life
- Format: ADME, Microsome
quantity measured: half-life (h)
Record the value in h, omitting the unit from your answer.

So what does the record say about half-life for COc1ccc2ncc(F)c(C[C@H](O)[C@H]3OC[C@H](NCc4cc5c(nn4)OCCS5)CO3)c2n1 ?
1.57

So what does the record say about half-life for COc1ccc2ncc(F)c(C(O)C[C@H]3OC[C@H](NCc4cc5c(nn4)OCCS5)CO3)c2n1 (mixture of isomers) ?
0.433
